test: inhibition of NOD2-driven NF-kB reporter – cell-based, luminescence, uHTS, HEK293 (AID 1566); settings: HEK293 NOD2/NF-kB luciferase reporter, at 4 µM, stronger effect = higher value
The whole screen tested about 290,000 compounds, of which about 1,800 (0.62%) were called active. This is one part of a sample in which actives are shown more often than they occur.
Lab note: compare inhibition against 10%. Equal or greater, write t. Smaller, write f.

• c1ccc(-c2noc(-c3ccncc3)n2)nc1 = f
• COc1ccc(-c2coc3c(C)c4oc(=O)c(CCC(=O)O)c(C)c4cc23)cc1 = f
• Cc1ccc(-c2nc(-c3ccccn3)no2)cc1 = t
• COc1cc(NC(=O)c2cc3ccccc3cc2OC)ccc1NC(=O)c1cccs1 = t
• CNC(=S)NC1CC2CCC(C1)N2Cc1ccccc1 (stereo not given) = f
• O=C(CCS(=O)(=O)c1ccccc1)NC1CCCCC1 = f
• O=C(Nc1ccc(O)c(C(=O)O)c1)Oc1ccccc1 = f
• COC(=O)c1nc2nc(-c3cccs3)cc(C(F)(F)F)n2n1 = f

Exam item: decide whether the reported inhibition for COc1cccc(OC)c1C(=O)Nc1ccc(N2CCN(C(=O)c3ccco3)CC2)cc1 is at least 10%.
f

Next compound up: O=C(c1cc(Cl)nc2ccccc12)N(Cc1nnc(-c2ccccc2Cl)o1)C1CC1
t

Next compound up: Cc1ccc2[nH]c(=O)c3cc(C(=O)N(C)C4CCCCC4)sc3c2c1
t

Next compound up: NC(=O)CN1CCN(CCN2C(=O)c3cccc4cccc(c34)C2=O)CC1
f

Next compound up: Clc1cccc(-c2ccnc3nc(-n4cccc4)nn23)c1
f

Next compound up: CCOC(=O)c1sc2nc(C)nc(NCc3ccc(F)cc3)c2c1C
t

Next compound up: COc1ccccc1CC(=O)Nc1ccc(NC(=O)c2cccs2)cc1
f

Next compound up: CN(C)/N=C/C=C1\CCC/C(=C\c2ccc(F)c(F)c2)C1=O
t
